Biological target: Aldehyde dehydrogenase, mitochondrial (Homo sapiens)
Assay: qHTS for Inhibitors of the Aldehyde Dehydrogenase Family (ALDH2) Primary screen (AID 2061308);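 also: plate controls were vehicle for no effect and reference inhibitor for full effect; nearly all actives have a fitted effect of over 55% in size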
Conditions: ALDH2 enzyme inhibition qHTS, 1536-well; series mostly up to 56 µM
Inconclusive results are not listed. Activity calls are given as the source filed them. Calls follow the shape of the dose curve; as a rule, active = well fitted inhibition curve with a large enough effect; inconclusive = small, poorly fitted or top-dose-only effect; inactive = flat fitted curve, though single readings scatter.
readout.name: activity change, negative = inhibition

[[record]]
compound = "CC1CCC(=O)CC(O)C(O)CC(=O)O1 (centres undefined)"
readout_name = "activity change, negative = inhibition"
endpoint_result = "inactive"

[[record]]
compound = "CC1=COC(OC2OC(CO)C(O)C(O)C2O)C2C(CO)CC(OC(=O)/C=C/c3ccc(O)cc3)C12 (centres undefined)"
readout_name = "activity change, negative = inhibition"
endpoint_result = "inactive"

[[record]]
compound = "C/C1=C\\CCC(C)CCO[C@@H]2O[C@H](CO[C@@H]3OC[C@H](O)[C@H](O)[C@H]3OC1=O)[C@@H](O)[C@H](O)[C@H]2O (some centres undefined)"
readout_name = "activity change, negative = inhibition"
endpoint_result = "inactive"

[[record]]
compound = "Clc1ccc2c(c1)C(N1CCNCC1)=Nc1ccccc1O2"
readout_name = "activity change, negative = inhibition"
endpoint_result = "inactive"

[[record]]
compound = "COc1ccccc1Oc1ccc(N(Cc2cccnc2)S(=O)(=O)CC(F)(F)F)cc1"
readout_name = "activity change, negative = inhibition"
endpoint_result = "inactive"

[[record]]
compound = "C=C1C(O)CC2C(C(=O)O)=COC(O[C@@H]3O[C@H](COC(=O)/C=C/c4ccc(O)cc4)[C@@H](O)[C@H](O)[C@H]3O)C12 (some centres undefined)"
readout_name = "activity change, negative = inhibition"
endpoint_result = "inactive"

[[record]]
compound = "CC(=O)Nc1ccc([C@H](C)C(=O)Nc2ncc(C(C)C)s2)cc1"
readout_name = "activity change, negative = inhibition"
endpoint_result = "inactive"

[[record]]
compound = "CS(=O)c1ccc(-c2nc(-c3ccc(F)cc3)c(-c3ccncc3)[nH]2)cc1 (centres undefined)"
readout_name = "activity change, negative = inhibition"
endpoint_result = "inactive"

[[record]]
compound = "COc1cc(O)c2c(c1)C1=CC(O)C(O)CC1(C)OC2=O (centres undefined)"
readout_name = "activity change, negative = inhibition"
endpoint_result = "inactive"


----------
activation reference
Molecular target: Cellular tumor antigen p53 (Homo sapiens) (UniProt P04637)
Sequence (P04637 whole entry, looked up): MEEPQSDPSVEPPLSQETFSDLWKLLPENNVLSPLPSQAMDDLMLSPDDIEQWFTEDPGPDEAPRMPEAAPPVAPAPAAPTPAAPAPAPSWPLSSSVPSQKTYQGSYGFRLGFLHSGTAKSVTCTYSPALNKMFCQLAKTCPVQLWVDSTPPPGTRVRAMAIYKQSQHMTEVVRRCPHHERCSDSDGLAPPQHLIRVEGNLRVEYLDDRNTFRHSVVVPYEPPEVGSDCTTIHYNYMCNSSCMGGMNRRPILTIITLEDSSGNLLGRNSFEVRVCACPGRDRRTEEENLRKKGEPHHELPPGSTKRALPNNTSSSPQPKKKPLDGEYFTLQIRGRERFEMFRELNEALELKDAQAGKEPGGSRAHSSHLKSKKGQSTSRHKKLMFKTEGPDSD
Assay: Primary qHTS for small molecule compounds that upregulate eGFP-tagged delta133p53alpha (in N-terminal) cells. (AID 2060322);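 also: cells pre-induced with doxycycline then dosed without doxycycline; 0% = DMSO vehicle and 100% = reference activator; nearly all actives have a fitted effect of over 75% in size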
Details: NCI-H358 eGFP-delta133p53alpha fluorescence, 24 h; stronger effect = higher value
Results filed as inconclusive are left out. Calls of active or inactive are those of the source. Calls follow the shape of the dose curve; as a rule, active = well fitted activation curve with a large enough effect; inconclusive = small, poorly fitted or top-dose-only effect; inactive = no such curve, though single readings can be large or run the other way.
readout.name: activation

[[record]]
compound = "CC(C)c1ccc(-c2cc(=O)c3ccccc3o2)cc1"
assayed_target = "Cellular tumor antigen p53 (Homo sapiens) (UniProt P04637)"
readout_name = "activation"
endpoint_result = "-14.8% (inactive)"

[[record]]
compound = "COc1ccc(CCc2nc3cc(-c4c(C)noc4C)ccc3n2CC(C)N2CCOCC2)cc1Cl (stereo not given)"
assayed_target = "Cellular tumor antigen p53 (Homo sapiens) (UniProt P04637)"
readout_name = "activation"
endpoint_result = "3.67% (inactive)"

[[record]]
compound = "CCCCCCCCCCCCCCCCN"
assayed_target = "Cellular tumor antigen p53 (Homo sapiens) (UniProt P04637)"
readout_name = "activation"
endpoint_result = "-20.1% (inactive)"

[[record]]
compound = "CC(C)(O)/C=C1/C(=O)C(C)(C)C(=O)C(C)(C)C1(O)O[C@@H]1O[C@H](COC(=O)c2cc(O)c(O)c(O)c2)[C@@H](O)[C@H](O)[C@H]1O (stereo not given in full)"
assayed_target = "Cellular tumor antigen p53 (Homo sapiens) (UniProt P04637)"
readout_name = "activation"
endpoint_result = "0.763% (inactive)"

[[record]]
compound = "OCCc1ccccc1"
assayed_target = "Cellular tumor antigen p53 (Homo sapiens) (UniProt P04637)"
readout_name = "activation"
endpoint_result = "1.69% (inactive)"

[[record]]
compound = "NC(=O)[C@H](Cc1ccccc1)NC(=O)[C@H](CCCN=C(N)N)NC(=O)C12CC3CC(CC(C3)C1)C2"
assayed_target = "Cellular tumor antigen p53 (Homo sapiens) (UniProt P04637)"
readout_name = "activation"
endpoint_result = "-9% (inactive)"

[[record]]
compound = "CS(=O)(=O)c1ccc(-c2cn3ccccc3n2)cc1"
assayed_target = "Cellular tumor antigen p53 (Homo sapiens) (UniProt P04637)"
readout_name = "activation"
endpoint_result = "-26.8% (inactive)"

[[record]]
compound = "CCN(CC)CCNC(=O)c1ccc(NS(C)(=O)=O)cc1"
assayed_target = "Cellular tumor antigen p53 (Homo sapiens) (UniProt P04637)"
readout_name = "activation"
endpoint_result = "-1.7% (inactive)"

[[record]]
compound = "COc1ccc2cc1Oc1ccc(cc1)C[C@H]1c3cc(c(OC)cc3CCN1C)Oc1c(OC)c(OC)cc3c1[C@H](C2)N(C)CC3"
assayed_target = "Cellular tumor antigen p53 (Homo sapiens) (UniProt P04637)"
readout_name = "activation"
endpoint_result = "-18.2% (inactive)"

[[record]]
compound = "Nc1ccc(C(=O)O)c(O)c1"
assayed_target = "Cellular tumor antigen p53 (Homo sapiens) (UniProt P04637)"
readout_name = "activation"
endpoint_result = "20.9% (inactive)"


----------
Target: Aldehyde dehydrogenase, mitochondrial (Homo sapiens)
Experiment: qHTS for Inhibitors of the Aldehyde Dehydrogenase Family (ALDH2) Primary screen (AID 2061308);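 also: plate controls were vehicle for no effect and reference inhibitor for full effect; nearly all actives have a fitted effect of over 55% in size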
Conditions: ALDH2 enzyme inhibition qHTS, 1536-well; series mostly up to 56 µM
Results filed as inconclusive are left out. Calls of active or inactive are those of the source. Calls come from the whole dose curve; as a rule, active = well fitted inhibition curve with a large enough effect; inconclusive = small, poorly fitted or top-dose-only effect; inactive = flat fitted curve, though single readings scatter.
readout.name: activity change, negative = inhibition

[[record]]
compound = "NC(Cc1c[nH]c2ccccc12)C(=O)NC(CCC(=O)O)C(=O)O (stereo not drawn)"
readout_name = "activity change, negative = inhibition"
endpoint_result = "inactive"

[[record]]
compound = "COc1ccc(C2(O)CCC(N3CC[C@@H](NC(=O)CNC(=O)c4cccc(C(F)(F)F)c4)C3)CC2)cn1 (stereo partly drawn)"
readout_name = "activity change, negative = inhibition"
endpoint_result = "inactive"

[[record]]
compound = "CC1OC(OC2C(OC3C(O[C@H]4CC[C@@]5(C)C(CC[C@]6(C)C5C(=O)CC5=C7CC(C)(C)CC(O)[C@]7(C)CC[C@]56C)C4(C)C)OC(C(=O)O)C(O)C3O)OCC(O)C2O)C(O)C(O)C1O (stereo partly drawn)"
readout_name = "activity change, negative = inhibition"
endpoint_result = "inactive"

[[record]]
compound = "Cc1csc(-c2nnc(Nc3ccc(Oc4ncccc4-c4ccnc(N)n4)cc3)c3ccccc23)c1"
readout_name = "activity change, negative = inhibition"
endpoint_result = "inactive"

[[record]]
compound = "C[C@@H]1CCC2C(C)(C)[C@H](O)CC[C@]2(C)[C@@]12Cc1c(O)cc3c(c1O2)CN([C@@H](CCC(=O)O)C(=O)O)C3=O (stereo partly drawn)"
readout_name = "activity change, negative = inhibition"
endpoint_result = "inactive"

[[record]]
compound = "COc1cc(C2c3cc(O)c(OC)cc3CC(CO)C2CO)ccc1O (stereo not drawn)"
readout_name = "activity change, negative = inhibition"
endpoint_result = "inactive"

[[record]]
compound = "C=C1CC/C=C(/C(=O)O)CCC2C1CC2(C)C (stereo not drawn)"
readout_name = "activity change, negative = inhibition"
endpoint_result = "inactive"

[[record]]
compound = "O=C(Nc1ccnc(NC(=O)C2CC2)c1)c1c(Cl)cccc1Cl"
readout_name = "activity change, negative = inhibition"
endpoint_result = "inactive"


----------
Test: BET inhibitor-based combinations targeting novel dependencies in MECOM-rearranged (r) AML: UCSD-AML1 cell line (AID 2202235); also: nearly all actives have a fitted effect of over 40% in size
Details: UCSD-AML1 AML cells viability, CellTiter-Glo, 48 h; series mostly up to 46 µM
Records with an inconclusive call do not appear. The source made the active and inactive calls. Calls follow the shape of the dose curve; as a rule, active = well fitted inhibition curve with a large enough effect; inconclusive = small, poorly fitted or top-dose-only effect; inactive = no such curve, though single readings can be large or run the other way.
Outcome codes: T for active, F for inactive

[[record]]
molecule = "CCOc1cc(N2CCC(O)CC2)ccc1Nc1ncc2c(n1)N(C)c1ccccc1C(=O)N2C"
cat = "T"

[[record]]
molecule = "O=C(Nc1ccc2c(c1)CCN(Cc1ncn[nH]1)C2)c1ccccc1-c1ccc(C(F)(F)F)cc1"
cat = "F"

[[record]]
molecule = "CC(=O)[C@H]1CC[C@H]2[C@@H]3CC=C4C[C@@H](O)CC[C@]4(C)[C@H]3CC[C@]12C"
cat = "F"

[[record]]
molecule = "OC[C@H](Cc1ccccc1)Nc1nc(Oc2ccc3c(c2)CCC3)nc2c1ncn2Cc1ccc(-c2ccccc2)cc1"
cat = "T"

[[record]]
molecule = "CCCCOc1nc(N)c2c(n1)N(Cc1cccc(CN3CCCC3)c1)CC(=O)N2"
cat = "F"

[[record]]
molecule = "CCC(c1ccc(O)cc1)C(CC)c1ccc(O)cc1 (centres undefined)"
cat = "F"

[[record]]
molecule = "COc1ccc([C@@H]2CNC(=O)C2)cc1OC1CCCC1"
cat = "F"

[[record]]
molecule = "COc1cc(Nc2c(C#N)cnc3cc(OCCCN4CCN(C)CC4)c(OC)cc23)c(Cl)cc1Cl"
cat = "T"

[[record]]
molecule = "COC(=O)C1=C(C)NC(C)=C(C(=O)OCCN2CCN(C(c3ccccc3)c3ccccc3)CC2)C1c1cccc([N+](=O)[O-])c1 (centres undefined)"
cat = "F"

[[record]]
molecule = "CCOC(=O)N1c2ccc(C(F)(F)F)cc2[C@@H](N(Cc2cc(C(F)(F)F)cc(C(F)(F)F)c2)C(=O)OC)C[C@H]1CC"
cat = "F"

[[record]]
molecule = "CC(C)C[C@H](NC(=O)CNC(=O)c1cc(Cl)ccc1Cl)B(O)O"
cat = "T"

[[record]]
molecule = "COc1cccc2nc(-c3cccs3)nc(NN3C(=O)C=C(C)C3=O)c12"
cat = "T"

[[record]]
molecule = "NC(=O)c1cnccn1"
cat = "F"

[[record]]
molecule = "NCc1ccc(OCCCc2sc(-c3ccc4c(c3)/C(=N/Nc3nc5ccccc5s3)CCC4)nc2C(=O)O)cc1"
cat = "T"

[[record]]
molecule = "COc1cc(Nc2nc3ccccc3nc2NS(=O)(=O)c2ccc(NC(=O)c3ccc(C)c(OC)c3)cc2)cc(OC)c1"
cat = "F"

[[record]]
molecule = "CC(=O)c1cnc2ccc(-c3cc(Cl)c(O)c(Cl)c3)nc2c1NC1CCC(CN(C)C)CC1 (centres undefined)"
cat = "T"

[[record]]
molecule = "CCS(=O)(=O)c1cccc(-c2cc(C(=O)NC3CCN(C)CC3)c(C)c3[nH]c4ncc(C)cc4c23)c1"
cat = "T"

[[record]]
molecule = "COc1ccccc1C(=O)Nc1cc2c(cc1N1CCCCC1)n(C)c(=O)n2C"
cat = "F"

[[record]]
molecule = "CCc1cc(C(N)=O)ccc1-n1nc(C(C)C)c2c(-n3cnc(-c4cnn(C)c4)c3)ccnc21"
cat = "T"

